Data origin: paper PMC10683072

System tested: T1, KQTSV peptide (tandem dimer of PDZ3)
T1 chain: KQTSV
Assay details: diffusion lag time measurement with labeled peptide (Figure S12)
Property: pKd
# log scale: pKd equals minus log10 of the concentration in mol/L

I have this binder here, 2xPDZ3 (two tandem repeats of PDZ3) PDZ3 (protein) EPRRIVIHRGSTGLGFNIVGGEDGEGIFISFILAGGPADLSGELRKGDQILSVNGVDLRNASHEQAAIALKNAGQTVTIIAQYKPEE , and I need its recorded pKd.
6.17
